Target: Prostaglandin D2 receptor 2 (Homo sapiens, UniProt Q9Y5Y4)
Sequence (Q9Y5Y4 whole entry): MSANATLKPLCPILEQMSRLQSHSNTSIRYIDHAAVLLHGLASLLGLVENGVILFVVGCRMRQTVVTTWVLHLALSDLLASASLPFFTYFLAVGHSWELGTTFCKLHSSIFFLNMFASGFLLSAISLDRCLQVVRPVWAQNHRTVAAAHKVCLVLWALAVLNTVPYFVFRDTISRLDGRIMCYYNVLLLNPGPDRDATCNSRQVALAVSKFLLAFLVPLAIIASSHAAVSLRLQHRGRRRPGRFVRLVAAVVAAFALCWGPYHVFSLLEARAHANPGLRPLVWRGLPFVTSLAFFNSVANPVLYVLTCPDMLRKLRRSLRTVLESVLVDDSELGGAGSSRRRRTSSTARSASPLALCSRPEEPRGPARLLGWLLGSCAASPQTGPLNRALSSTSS
Experiment: Binding affinity to human CRTh2 assessed by competitive binding assay
measure_name: Ki (nM)
Answers are plain numbers, in nM.

# molecule, unit_name, Ki
data = [
    ("CC1(c2nc3ccc(F)cc3o2)CC(NC(=O)c2ccc3c(=O)n(-c4ccc(F)cc4)c(CCCCC(=O)O)cc3c2)=NO1 (centres undefined)", "nM", 26),
]

Please give Ki for each item listed below.
1. O=C(O)CCCCc1cc2cc(C(=O)Nc3noc(Cc4ccc(F)cc4)n3)ccc2c(=O)n1-c1ccc(F)cc1
2. CC(c1ccc(F)cc1)c1nc(NC(=O)c2ccc3c(=O)n(-c4ccc(F)cc4)c(CCCCC(=O)O)cc3c2)no1 (centres undefined)

1: 7.8; 2: 13

Tell me Ki reported for `C[C@@H](NC(=O)c1ccc2c(=O)[nH]c(CCCCC(=O)O)cc2c1)c1ccc(F)cc1` 703

----------
Provide the reported Ki of each item.
Molecular target: Prostaglandin D2 receptor 2 (Homo sapiens, UniProt Q9Y5Y4)
Experiment: Binding affinity to human CRTh2 assessed by competitive binding assay
// return the numeric value with its unit appended

Consider the reported Ki for these molecules:
# smiles_notation, Ki
data = [
    ("C[C@@H](NC(=O)c1ccc2c(=O)n(-c3ccc(C#N)cc3)c(CCCCC(=O)O)cc2c1)c1ccc(F)cc1", "9.2 nM"),
    ("O=C(O)CCCCc1cc2cc(C(=O)Nc3cc(Cc4ccc(F)cc4)on3)ccc2c(=O)n1-c1ccc(F)cc1", "11 nM"),
    ("C[C@@H](NC(=O)c1ccc2c(=O)n(-c3ccc(F)cc3)c(CCCCC(=O)O)cc2c1)c1ccc(F)cc1", "5.9 nM"),
    ("C[C@@H]1CN(c2ccc(F)cc2)CCN1C(=O)c1ccc2c(=O)n(-c3ccc(F)cc3)c(CCCCC(=O)O)cc2c1", "24 nM"),
]

Please give Ki for each item listed below.
1. COc1ccc(-n2c(CCCCC(=O)O)cc3cc(C(=O)N[C@H](C)c4ccc(F)cc4)ccc3c2=O)cc1
2. O=C(O)CCCCc1cc2cc(C(=O)Nc3noc(C4Cc5ccccc5C4)n3)ccc2c(=O)n1-c1ccc(F)cc1

8.5 nM
22 nM
